# testedSystem: P-selectin (Homo sapiens, UniProt P16109)
# Construct: P-selectin is isolated from human platelet lysates
# Sequence (P16109 42-830): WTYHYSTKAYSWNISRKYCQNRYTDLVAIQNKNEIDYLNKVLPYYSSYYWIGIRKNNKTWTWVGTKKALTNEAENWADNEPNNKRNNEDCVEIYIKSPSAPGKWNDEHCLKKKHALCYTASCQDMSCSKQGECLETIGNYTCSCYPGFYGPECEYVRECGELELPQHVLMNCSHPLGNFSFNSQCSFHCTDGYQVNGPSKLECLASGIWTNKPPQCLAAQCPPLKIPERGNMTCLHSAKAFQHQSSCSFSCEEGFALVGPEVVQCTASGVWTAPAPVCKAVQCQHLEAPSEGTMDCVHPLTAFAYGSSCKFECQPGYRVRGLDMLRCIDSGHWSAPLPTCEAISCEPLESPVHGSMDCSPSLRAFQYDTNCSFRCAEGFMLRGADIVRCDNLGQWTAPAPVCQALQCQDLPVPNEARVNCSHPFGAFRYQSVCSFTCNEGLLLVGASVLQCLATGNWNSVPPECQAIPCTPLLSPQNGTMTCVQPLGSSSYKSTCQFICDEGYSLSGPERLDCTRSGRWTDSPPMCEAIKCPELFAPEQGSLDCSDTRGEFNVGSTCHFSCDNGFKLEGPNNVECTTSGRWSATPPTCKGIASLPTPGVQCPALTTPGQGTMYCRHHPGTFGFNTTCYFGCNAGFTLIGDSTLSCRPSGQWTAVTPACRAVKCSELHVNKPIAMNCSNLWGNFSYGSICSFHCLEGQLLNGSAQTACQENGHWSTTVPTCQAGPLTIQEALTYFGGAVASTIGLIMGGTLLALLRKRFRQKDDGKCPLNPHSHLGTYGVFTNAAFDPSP
# assayProtocol: Inhibition of human neutrophil adhesion to purified P-selectin immobilized on plastic wells
# details: inhibiting the binding of human neutrophils to P-selectin
Where a SMILES comes first, the peptide text is derived from it. Bridges are numbered along the chain shown (N, C = ends). [ ]: non-standard residue; d: D form. 2Nal = N[C@@H](Cc1ccc2ccccc2c1)C(=O)O; dΔPro = O=C(O)[C@H]1C=CCN1
observable: IC50 (µM)
Please reply with the bare figure in µM and do not write the unit itself.

Below: 4 compounds and their reported IC50.
compound="CC(C)[C@@H](NC(=O)[C@@H](Cc1c[nH]c2ccccc12)NC(=O)[C@H](NC(=O)[C@@H](Cc1c[nH]c2ccccc12)NC(=O)[C@H]1CSSC[C@@H](NC(=O)[C@@H](CCCCN)NC(=O)[C@H](N)CCCNC(=N)N)C(=O)NCC(=O)N[C@@H](Cc2ccccc2)C(=O)N1)C(C)C)C(=O)O [(103)] (H-[dR][dK][dC]GF[dC][dW][dV][dW][dV]-OH; disulfide 3-6)" assayvalue=42.7
compound="CC(C)[C@@H](NC(=O)[C@@H](Cc1c[nH]c2ccccc12)NC(=O)[C@H](NC(=O)[C@@H](Cc1c[nH]c2ccccc12)NC(=O)[C@@H]1CSSC[C@@H](NC(=O)[C@@H](CCCCN)NC(=O)[C@H](N)CCCNC(=N)N)C(=O)NCC(=O)N[C@@H](Cc2ccccc2)C(=O)N1)[C@H](C)O)C(N)=O [(91)] (H-[dR][dK][dC]GFC[dW][dT][dW][dV]-NH2; disulfide 3-6)" assayvalue=42.7
compound="CC(C)[C@@H](NC(=O)[C@@H](Cc1c[nH]c2ccccc12)NC(=O)[C@H](NC(=O)[C@@H](Cc1c[nH]c2ccccc12)NC(=O)[C@H]1CSSC[C@@H](NC(=O)[C@@H](CCCCN)NC(=O)[C@H](N)CCCNC(=N)N)C(=O)NCC(=O)N2CC=C[C@@H]2C(=O)N1)[C@H](C)O)C(N)=O [(36)] (H-[dR][dK][dC]G[dΔPro][dC][dW][dT][dW][dV]-NH2; disulfide 3-6)" assayvalue=267
compound="CC(C)[C@@H](NC(=O)[C@@H](Cc1c[nH]c2ccccc12)NC(=O)[C@H](NC(=O)[C@@H](Cc1c[nH]c2ccccc12)NC(=O)[C@H]1CSSC[C@@H](NC(=O)[C@@H](CCCCN)NC(=O)[C@H](N)CCCNC(=N)N)C(=O)NCC(=O)N[C@@H](Cc2ccc3ccccc3c2)C(=O)N1)[C@H](C)O)C(N)=O [(73)] (H-[dR][dK][dC]G[2Nal][dC][dW][dT][dW][dV]-NH2; disulfide 3-6)" assayvalue=3.2

Okay, next one:
*Q* Recorded IC50 of C[C@H](O)[C@H]1NC(=O)[C@@H](Cc2c[nH]c3ccccc23)NC(=O)[C@H]2CSSC[C@@H](NC(=O)[C@H](NC(=O)[C@H](N)CCCNC(=N)N)CCCCNC(=O)CC[C@H](C(N)=O)NC(=O)[C@@H](Cc3c[nH]c4ccccc34)NC1=O)C(=O)NCC(=O)N[C@@H](Cc1ccccc1)C(=O)N2 [(105)] (H-[dR][dK][dC]GF[dC][dW][dT][dW][dE]-NH2; lactam 2-10; disulfide 3-6; N-terminus assumed) , please.
*A* 97.8
